Tested on: Yap1 mRNA
Assay: Dose-dependent inhibition of human Yap1 in SNU-449 cells (Example 9, RTS36584)
Format: cell-based
Details: 500.0 nM, free uptake, approximately 48 hours
Strand notation (5' to 3'): a small letter for the sugar, then the base; units joined by * are phosphorothioate-linked, units joined directly phosphodiester-linked; [ ] holds rarer units or linkages, { } end groups; capitals alone tell only the bases. e = 2'-O-(2-methoxyethyl) (MOE); k = constrained ethyl (cEt); [5mC] = 5-methylcytosine; d = 2'-deoxy (DNA)
outcomeMeasure: % UTC (Yap1 mRNA) (% UTC)
Numeric answer only, unit % UTC assumed.

Worked cases, answers included:
1198440 (AAGTGTATGTCAGAAG; cEt, 2'-MOE, 5-methylcytosine, phosphorothioate modifications, further chemistry not given here) [compound 1198440]	6
1198524 (kT*kG*dT*dA*dT*dG*dT*d[5mC]*dA*dG*dA*eA*kG*eA*kG*eT; antisense) [compound 1198524]	9
1197177 (kA*kT*kT*dG*dT*d[5mC]*dT*d[5mC]*dA*dT*dG*d[5mC]*d[5mC]*kT*kT*kA; antisense) [compound 1197177]	8
1095593 (kT*kG*dA*dG*dG*dT*dA*dT*dA*dA*d[5mC]*eT*eG*eG*kG*k[5mC]; antisense) [compound 1095593]	27
1198697 (kA*kG*dT*dG*dT*dA*dT*dG*dT*d[5mC]*dA*dG*kA*eA*kG*eA) [compound 1198697]	7

With those in mind, consider the next substance.
API: value(readout= % UTC (Yap1 mRNA), system= Yap1 mRNA, query= 1198397 (k[5mC]*dA*d[5mC]*dT*dT*dT*dT*dA*d[5mC]*dA*dT*kT*eA*kG*eG*kA; antisense) [compound 1198397] )
28

Values were extracted from patent US11214803B2.
